MEASURED_METRIC: melting point (°C)

- Cc1csc(C)c1S(=O)(=O)NC(=O)Nc1nc(OCC(F)(F)F)nc(N(C)C)n1: 195
- COc1nc(C)nc(NC(=O)NS(=O)(=O)c2c(C)csc2C)n1: 189
- Cc1cc(C)nc(NC(=O)NS(=O)(=O)c2c(C)csc2C)n1: 240
- CSc1nc(C)nc(NC(=O)NS(=O)(=O)c2c(C)csc2C)n1: 220
- COc1nc(NC(=O)NS(=O)(=O)c2c(C)csc2C)nc(OC)n1: 168
- COc1cc(Cl)nc(NC(=O)NS(=O)(=O)c2c(C)csc2C)n1: 219
- Cc1csc(C)c1S(=O)(=O)NC(=O)Nc1nc(Oc2ccccc2)nc(N(C)C)n1: 173
- COc1cc(OC)nc(NC(=O)NS(=O)(=O)c2c(C)csc2C)n1: 198

FYI, the data here is from patent US6451738B1.
